Each entry below lists one item and its recorded inhibition at 1 µM value.
Biological target: NA transporter (Rattus norvegicus, UniProt Q63380)
Construct: synaptosomes are isolated fresh from rat brains; from tissue; host or cells: rat hypothalamus synaptosomes (P2 fraction)
Sequence (Q63380 1-617): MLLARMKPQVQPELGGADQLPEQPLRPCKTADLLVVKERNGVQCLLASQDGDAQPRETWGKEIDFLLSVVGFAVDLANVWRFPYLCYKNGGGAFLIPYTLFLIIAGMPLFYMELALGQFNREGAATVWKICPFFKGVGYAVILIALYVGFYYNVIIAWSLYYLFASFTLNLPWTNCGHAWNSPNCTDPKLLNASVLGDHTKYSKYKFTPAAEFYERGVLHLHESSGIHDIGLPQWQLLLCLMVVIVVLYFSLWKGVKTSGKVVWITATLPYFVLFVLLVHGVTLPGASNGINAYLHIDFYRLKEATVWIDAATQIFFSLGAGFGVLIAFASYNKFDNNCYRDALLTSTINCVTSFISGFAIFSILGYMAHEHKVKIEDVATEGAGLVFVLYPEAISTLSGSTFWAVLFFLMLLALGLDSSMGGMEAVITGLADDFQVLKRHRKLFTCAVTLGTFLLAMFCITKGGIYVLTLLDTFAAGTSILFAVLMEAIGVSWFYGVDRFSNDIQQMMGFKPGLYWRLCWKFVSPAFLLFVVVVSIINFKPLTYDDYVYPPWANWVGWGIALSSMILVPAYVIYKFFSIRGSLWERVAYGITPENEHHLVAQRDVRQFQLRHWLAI
Experiment: synaptosomal noradrenaline uptake inhibition (NA uptake inhibition)
Type: biochemical
Settings: read-out: NA Uptake Inhibition at 1 μM, 1 μM in the assay, synaptosomes from rat hypothalamus
measurement_type: inhibition at 1 µM (%)

> print(dat)
                                    compound                             target.entity  reading
 1  CN(C)C(c1ccccc1)C1CCCCC1(O)Cc1cccc(F)c1.Cl (stereo not drawn) [Example 29, hydrochloride]  NA transporter (Rattus norvegicus, UniProt Q63380)       96
 2  COc1ccc(OC)c(C2(O)CCCCC2C(c2ccccc2)N(C)C)c1.Cl (stereo not drawn) [Example 26, hydrochloride]  NA transporter (Rattus norvegicus, UniProt Q63380)        5
 3  CN(C)C(c1ccccc1)C1CCCCC1(O)Cc1ccc(C(C)(C)C)cc1.Cl (stereo not drawn) [Example 28, hydrochloride]  NA transporter (Rattus norvegicus, UniProt Q63380)       63
 4  CN(C)C(c1ccccc1)C1CCCCC1(O)Cc1cccc(Cl)c1.Cl (stereo not drawn) [Example 32, hydrochloride]  NA transporter (Rattus norvegicus, UniProt Q63380)      100
 5  CN(C)C(c1ccc(Cl)c(Cl)c1)C1CCCCC1(O)Cc1ccc(C(C)(C)C)cc1.Cl (stereo not drawn) [Example 46, hydrochloride]  NA transporter (Rattus norvegicus, UniProt Q63380)       35
 6  CN(C)C(c1ccccc1Cl)C1CCCCC1(O)Cc1ccccc1Cl.Cl (stereo not drawn) [Example 60, hydrochloride]  NA transporter (Rattus norvegicus, UniProt Q63380)       56
 7  CSc1ccccc1C1(O)CCCCC1C(c1ccccc1)N(C)C.Cl (stereo not drawn) [Example 75, hydrochloride]  NA transporter (Rattus norvegicus, UniProt Q63380)        0
 8  CN(C)C(c1ccccc1)C1CCCCC1(O)Cc1ccccc1.Cl (stereo not drawn) [Example 14, hydrochloride]  NA transporter (Rattus norvegicus, UniProt Q63380)      100
 9  CN(C)C(c1ccc(Cl)c(Cl)c1)C1CCCCC1(O)Cc1ccccc1.Cl (stereo not drawn) [Example 39, hydrochloride]  NA transporter (Rattus norvegicus, UniProt Q63380)       61
10  CN(C)C(c1cccc(Oc2ccccc2)c1)C1CCCCC1(O)Cc1ccc(C(C)(C)C)cc1.Cl (stereo not drawn) [Example 64, hydrochloride]  NA transporter (Rattus norvegicus, UniProt Q63380)       36
11  CN(C)C(c1ccccc1Cl)C1CCCCC1(O)CCc1ccc(F)cc1.Cl (stereo not drawn) [Example 69, hydrochloride]  NA transporter (Rattus norvegicus, UniProt Q63380)       76
12  CN(C)C(c1ccccc1Cl)C1CCCCC1(O)Cc1ccccc1.Cl (stereo not drawn) [Example 45, hydrochloride]  NA transporter (Rattus norvegicus, UniProt Q63380)       89
